B1: CPEB3 Ribozyme (parent)
chain: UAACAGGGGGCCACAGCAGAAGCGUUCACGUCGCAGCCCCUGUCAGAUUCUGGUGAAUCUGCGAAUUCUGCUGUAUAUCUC

# Variants of: B1
# Assay text: self-cleavage, relative activity (ratio to wild type); higher = more cleavage; in vitro, sequencing
Heads up, the class ranges for self-cleavage are band A: < 0.3; band B: ≥ 0.3 and < 0.6; band C: ≥ 0.6

Look over these answered cases.
Mutation list | Assigned category
A5G A18C | band B
A64G U78C | band C
G46A U74C | band B
U48C A64C | band A
A47G G73A | band C
C39A U54A | band A
C29U C79G | band C
U1A C37G | band C
U66C U72G | band B
G8A C71U | band A

Q) Place this variant in its band: A18U A65G
A) band A

Q) Place this variant in its band: C17U U26C
A) band A

Q) Place this variant in its band: A28G G55A
A) band B

Q) Place this variant in its band: A20U A65G
A) band A

Q) Place this variant in its band: U31G U58A
A) band B

Q) Place this variant in its band: U1C G53U
A) band C

Q) Place this variant in its band: A13U A57U
A) band C

Q) Place this variant in its band: U41A U58C
A) band A

Q) Place this variant in its band: U51A A64C
A) band B

Q) Place this variant in its band: C79A U80C
A) band C

Q) Place this variant in its band: U48A C59A
A) band B

Q) Place this variant in its band: U25C G42U
A) band B

Q) Place this variant in its band: A20C U31C
A) band A

Q) Place this variant in its band: A13C A64G
A) band C

Q) Place this variant in its band: G46A U49C
A) band A

Q) Place this variant in its band: U49C C71U
A) band A
